# ASSAY EXPLANATION: Differential scanning fluorimetry (protein thermal shift; TM1 Fc, TM2 Fab)
# Assay type: physicochemical
# CONDITION: melting temperature of the Fab domain; Table 11
RECORDED METRIC: TM2 (°C)
Numbers only, in °C.

# MOLECULE, VALUE UNIT, TM2
rows = [
    ("SRP2196-A06 (antibody, V domains shown) VH: EVQLVESGGGLVQPGGSLRLSCAASGFNITGYYIHWVRQAPGKGLEWVGQISPNSGSTHQADSVKGRFTISADTSKNTAYLQMNSLRAGDTAVYYCARDSRRYVRGWDYWGQGTLVTVSS VL: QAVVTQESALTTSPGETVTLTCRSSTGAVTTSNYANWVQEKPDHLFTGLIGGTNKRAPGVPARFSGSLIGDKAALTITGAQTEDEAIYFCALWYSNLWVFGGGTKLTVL", "°C", 70),
]

Turning now to a further molecule:
Data request: What does the record list as TM2 for SRP2196-C02 (antibody, V domains shown) VH: EVQLVESGGGLVQPGGSLRLSCAASGFNITGYHIHWVRQAPGKGLEWVGFISPNSGWTYSADSVKGRFTISADTSKNTAYLQMNSLRAEDTAVYYCARDSRRYVRPFDYWGQGTLVTVSS VL: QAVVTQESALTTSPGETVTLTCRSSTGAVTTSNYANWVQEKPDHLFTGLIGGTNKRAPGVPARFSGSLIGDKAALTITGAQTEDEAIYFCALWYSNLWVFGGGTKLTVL ?
Data returned: 67

These measurements were taken from patent US12226490B2.
